Catalogue of molecules with associated Activity
- protocol-details: Cytotoxicity against human IMR32 cells assessed as cell viability after 24 to 48 hrs by MTT assay
- Assay type: functional, IMR-32
Provide the reading as a plain figure in µM.

> print(dat)
                           substance.smiles  recorded.value
1  COc1ccc(Nc2ncccc2C(=O)N2CCN(C(=O)c3cc(-c4cc(OC)c(OC)c(OC)c4)n4nc(-c5ccccc5)cc4n3)CC2)cc1OC            5.75
2  O=C(c1cc(-c2ccc(Cl)c(Cl)c2)n2nc(-c3ccccc3)cc2n1)N1CCN(C(=O)c2cccnc2Nc2ccccc2)CC1            7.87
3  COc1cc(Nc2ncccc2C(=O)N2CCN(C(=O)c3cc(-c4ccc(Cl)c(Cl)c4)n4nc(-c5ccccc5)cc4n3)CC2)cc(OC)c1OC            5.62
4  COc1cc(-c2cc(C(=O)N3CCN(C(=O)c4cccnc4Nc4ccccc4)CC3)nc3cc(-c4ccccc4)nn23)cc(OC)c1OC            7.25
5  COc1ccc(-c2cc(C(=O)N3CCN(C(=O)c4cccnc4Nc4cc(OC)c(OC)c(OC)c4)CC3)nc3cc(-c4ccccc4)nn23)cc1OC            4.88

Request the reported Activity associated with "COc1cc(Nc2ncccc2C(=O)N2CCN(C(=O)c3cc(-c4ccc(F)cc4)n4nc(-c5ccccc5)cc4n3)CC2)cc(OC)c1OC"
5

Request the reported Activity associated with "COc1cc(-c2cc(C(=O)N3CCN(C(=O)c4cccnc4Nc4ccc(F)cc4)CC3)nc3cc(-c4ccccc4)nn23)cc(OC)c1OC"
5.75

Request the reported Activity associated with "COc1ccc(Nc2ncccc2C(=O)N2CCN(C(=O)c3cc(-c4ccc(Cl)c(Cl)c4)n4nc(-c5ccccc5)cc4n3)CC2)cc1"
5

Request the reported Activity associated with "COc1ccc(-c2cc(C(=O)N3CCN(C(=O)c4cccnc4Nc4ccccc4)CC3)nc3cc(-c4ccccc4)nn23)cc1OC"
6.5

Request the reported Activity associated with "COc1ccc(-c2cc(C(=O)N3CCN(C(=O)c4cccnc4Nc4ccccc4)CC3)nc3cc(-c4ccccc4)nn23)cc1"
4.75

Request the reported Activity associated with "COc1ccc(-c2cc(C(=O)N3CCN(C(=O)c4cccnc4Nc4ccc(F)cc4)CC3)nc3cc(-c4ccccc4)nn23)cc1OC"
5.87

Request the reported Activity associated with "COc1ccc(Nc2ncccc2C(=O)N2CCN(C(=O)c3cc(-c4ccc(Cl)c(Cl)c4)n4nc(-c5ccccc5)cc4n3)CC2)cc1OC"
7.15

Request the reported Activity associated with "COc1ccc(Nc2ncccc2C(=O)N2CCN(C(=O)c3cc(-c4cc(OC)c(OC)c(OC)c4)n4nc(-c5ccccc5)cc4n3)CC2)cc1"
5.87

Request the reported Activity associated with "COc1ccc(Nc2ncccc2C(=O)N2CCN(C(=O)c3cc(-c4ccc(OC)cc4)n4nc(-c5ccccc5)cc4n3)CC2)cc1"
6.37

Request the reported Activity associated with "O=C(c1cc(-c2ccc(Cl)c(Cl)c2)n2nc(-c3ccccc3)cc2n1)N1CCN(C(=O)c2cccnc2Nc2ccc(F)cc2)CC1"
5.87

Request the reported Activity associated with "COc1ccc(-c2cc(C(=O)N3CCN(C(=O)c4cccnc4Nc4ccc(OC)c(OC)c4)CC3)nc3cc(-c4ccccc4)nn23)cc1"
5.12

Request the reported Activity associated with "COc1cccc2c1C(=O)c1c(O)c3c(c(O)c1C2=O)C[C@@](O)(C(=O)CO)C[C@@H]3O[C@H]1C[C@H](N)[C@H](O)[C@H](C)O1"
4.5

Request the reported Activity associated with "COc1ccc(Nc2ncccc2C(=O)N2CCN(C(=O)c3cc(-c4ccc(OC)c(OC)c4)n4nc(-c5ccccc5)cc4n3)CC2)cc1OC"
5.25

----------
- Test system: HeLa
- protocol-details: Cytotoxicity against human HeLa cells assessed as cell viability after 24 to 48 hrs by MTT assay
- Assay type: functional
recorded-metric: Activity (µM)
Provide the reading as a plain figure in µM.

> print(dat)
                           substance.smiles  recorded.value
1  O=C(c1cc(-c2ccc(F)cc2)n2nc(-c3ccccc3)cc2n1)N1CCN(C(=O)c2cccnc2Nc2ccccc2)CC1            2.29
2  COc1ccc(Nc2ncccc2C(=O)N2CCN(C(=O)c3cc(-c4ccc(F)cc4)n4nc(-c5ccccc5)cc4n3)CC2)cc1OC            6.33
3  COc1ccc(Nc2ncccc2C(=O)N2CCN(C(=O)c3cc(-c4cc(OC)c(OC)c(OC)c4)n4nc(-c5ccccc5)cc4n3)CC2)cc1OC            6.08

Request the reported Activity associated with "COc1cc(Nc2ncccc2C(=O)N2CCN(C(=O)c3cc(-c4ccc(Cl)c(Cl)c4)n4nc(-c5ccccc5)cc4n3)CC2)cc(OC)c1OC"
4.52

----------
- Tested on: HeLa
- protocol-details: Cytotoxicity against human HeLa cells assessed as cell viability after 24 to 48 hrs by MTT assay
- Format: functional
Rule: Activity below 3 µM gives Criterion met, anything at or above gives Criterion not met.

> print(dat)
                           substance.smiles                cat
1  COc1ccc(Nc2ncccc2C(=O)N2CCN(C(=O)c3cc(-c4ccc(Cl)c(Cl)c4)n4nc(-c5ccccc5)cc4n3)CC2)cc1OC  Criterion not met
2  COc1ccc(Nc2ncccc2C(=O)N2CCN(C(=O)c3cc(-c4cc(OC)c(OC)c(OC)c4)n4nc(-c5ccccc5)cc4n3)CC2)cc1      Criterion met
3  O=C(c1cc(-c2ccc(Cl)c(Cl)c2)n2nc(-c3ccccc3)cc2n1)N1CCN(C(=O)c2cccnc2Nc2ccccc2)CC1      Criterion met
4  COc1cc(-c2cc(C(=O)N3CCN(C(=O)c4cccnc4Nc4ccc(F)cc4)CC3)nc3cc(-c4ccccc4)nn23)cc(OC)c1OC      Criterion met
5  COc1ccc(-c2cc(C(=O)N3CCN(C(=O)c4cccnc4Nc4ccccc4)CC3)nc3cc(-c4ccccc4)nn23)cc1      Criterion met

# TODO verify Activity < 3 µM strictly for this compound: "COc1ccc(-c2cc(C(=O)N3CCN(C(=O)c4cccnc4Nc4ccccc4)CC3)nc3cc(-c4ccccc4)nn23)cc1OC"
Criterion met

# TODO verify Activity < 3 µM strictly for this compound: "COc1ccc(-c2cc(C(=O)N3CCN(C(=O)c4cccnc4Nc4cc(OC)c(OC)c(OC)c4)CC3)nc3cc(-c4ccccc4)nn23)cc1"
Criterion not met

# TODO verify Activity < 3 µM strictly for this compound: "COc1ccc(Nc2ncccc2C(=O)N2CCN(C(=O)c3cc(-c4ccc(F)cc4)n4nc(-c5ccccc5)cc4n3)CC2)cc1"
Criterion not met

# TODO verify Activity < 3 µM strictly for this compound: "COc1ccc(-c2cc(C(=O)N3CCN(C(=O)c4cccnc4Nc4ccc(F)cc4)CC3)nc3cc(-c4ccccc4)nn23)cc1"
Criterion not met

# TODO verify Activity < 3 µM strictly for this compound: "O=C(c1cc(-c2ccc(F)cc2)n2nc(-c3ccccc3)cc2n1)N1CCN(C(=O)c2cccnc2Nc2ccc(F)cc2)CC1"
Criterion not met

# TODO verify Activity < 3 µM strictly for this compound: "COc1ccc(-c2cc(C(=O)N3CCN(C(=O)c4cccnc4Nc4ccc(OC)c(OC)c4)CC3)nc3cc(-c4ccccc4)nn23)cc1"
Criterion not met

# TODO verify Activity < 3 µM strictly for this compound: "COc1ccc(-c2cc(C(=O)N3CCN(C(=O)c4cccnc4Nc4ccc(F)cc4)CC3)nc3cc(-c4ccccc4)nn23)cc1OC"
Criterion not met

# TODO verify Activity < 3 µM strictly for this compound: "COc1ccc(-c2cc(C(=O)N3CCN(C(=O)c4cccnc4Nc4cc(OC)c(OC)c(OC)c4)CC3)nc3cc(-c4ccccc4)nn23)cc1OC"
Criterion not met
